System: NCI-H226 complex tumor spheroids, viability
test details: Anticancer human tumor NCI-H226 cell line growth inhibition;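 note: spheroids exposed to compound for 7 days; 100% = DMSO vehicle control viability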
setup conditions: second compound 10 µM; first compound 0.3 µM; hits give low values
Method: Multicellular complex tumor spheroid response to DNA repair inhibitors in combination with DNA-damaging drugs This study explores the anticancer activities of DNA-damaging drugs and inhibitors of DNA damage repair, both as single agents and in combinations. […] Twenty-six patient-derived or established malignant cell lines were evaluated representing sarcoma, melanoma, small cell lung cancer (SCLC), non-small cell lung cancer (NSCLC), as well as bladder, ovarian and pancreatic cancers. […]
measured quantity: viability, T/C

Please review the following examples before continuing.
Cn1ncnc1[C@H]1c2n[nH]c(=O)c3cc(F)cc(c23)N[C@@H]1c1ccc(F)cc1 + Cn1nnc2c(C(N)=O)ncn2c1=O: 88.6%
O=C(c1cc(Cc2n[nH]c(=O)c3ccccc23)ccc1F)N1CCN(C(=O)C2CC2)CC1 + Cn1nnc2c(C(N)=O)ncn2c1=O: 104%
Cc1sc2c(c1C)C(c1ccc(Cl)cc1)=NC(CC(=O)Nc1ccc(O)cc1)c1nnc(C)n1-2 (centres undefined) + Cn1nnc2c(C(N)=O)ncn2c1=O: 66.4%

Now look at this one.
## Task I am curious: what viability, T/C value has been reported for CNCc1ccc(-c2cc(-c3nc(-c4ccc(S(=O)(=O)C(C)C)cc4)cnc3N)on2)cc1 + Cn1nnc2c(C(N)=O)ncn2c1=O ?
## Result 128%
